Target: T1, human ceruloplasmin (human, UniProt P00450 20-1065)
T1 construct: also called CP; purified CP
T1 sequence: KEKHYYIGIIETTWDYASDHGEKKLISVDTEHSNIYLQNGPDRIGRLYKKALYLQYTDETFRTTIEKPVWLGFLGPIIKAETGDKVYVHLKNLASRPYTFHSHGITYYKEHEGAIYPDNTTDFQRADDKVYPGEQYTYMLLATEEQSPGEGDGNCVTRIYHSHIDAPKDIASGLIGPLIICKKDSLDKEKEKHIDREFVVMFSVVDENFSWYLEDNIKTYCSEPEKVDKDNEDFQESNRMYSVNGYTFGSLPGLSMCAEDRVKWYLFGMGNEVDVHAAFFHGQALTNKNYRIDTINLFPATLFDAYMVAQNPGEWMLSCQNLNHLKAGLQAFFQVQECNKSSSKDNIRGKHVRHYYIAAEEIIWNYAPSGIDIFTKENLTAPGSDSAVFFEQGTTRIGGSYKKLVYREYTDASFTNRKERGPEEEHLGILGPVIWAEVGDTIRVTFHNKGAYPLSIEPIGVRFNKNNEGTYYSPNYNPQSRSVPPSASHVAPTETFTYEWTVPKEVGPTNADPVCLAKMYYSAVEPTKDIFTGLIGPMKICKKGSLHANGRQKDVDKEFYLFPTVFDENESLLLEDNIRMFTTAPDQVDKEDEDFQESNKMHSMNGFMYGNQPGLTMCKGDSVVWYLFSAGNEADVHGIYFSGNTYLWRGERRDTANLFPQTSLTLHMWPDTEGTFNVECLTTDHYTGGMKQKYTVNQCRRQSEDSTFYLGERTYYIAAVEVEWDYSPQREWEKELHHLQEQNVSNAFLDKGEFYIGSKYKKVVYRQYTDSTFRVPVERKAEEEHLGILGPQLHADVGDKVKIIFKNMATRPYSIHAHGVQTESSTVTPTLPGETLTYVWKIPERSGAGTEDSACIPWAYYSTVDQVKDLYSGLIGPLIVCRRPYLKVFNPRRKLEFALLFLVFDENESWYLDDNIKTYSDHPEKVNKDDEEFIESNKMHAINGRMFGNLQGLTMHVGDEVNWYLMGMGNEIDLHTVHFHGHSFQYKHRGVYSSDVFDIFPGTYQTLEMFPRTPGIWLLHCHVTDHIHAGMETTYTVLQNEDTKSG
Experiment: competition ELISA on coated CP, biotinylated probe; competitor: mAb H
Recorded measurements of probe binding, % of diluent control, one per entry
Just the number in %, nothing appended.

Reference set (3 entries):
binder: anti-CP mAb D (antibody, V domains shown, Recombinant full-length rabbit IgG from HEK-293; tested as conditioned medium, Protein A-purified and biotinylated) VH: QEQLVESGGGLVQPEGSLTLTCKASGFDFSSYWMCWVRQAPGKRPEWIACIYGGDGTSYFAGWAKGRFTISKTSSTTVTLQMTSLTAADTATYFCARADYYVYVDGGYGHAYDLWGPGTLVTVSS VL: DIVMTQTPASVEAAVGGSVTIKCQASDDIYSYLAWYQQKPGQPPKLLIFDASSLPSGVPSRFKGSGSGTQFTLTISGVQCADAATYYCQNYYGSSSSVHAFGGGTEVVVKG
unit.symbol: %
probe binding, % of diluent control: 9

binder: anti-CP mAb G (antibody, V domains shown, Recombinant full-length rabbit IgG from HEK-293; also called mAb3) VH: QSLEESGGRLVTPGTLLTLTCTVSGFSLSSNAMSWVRQAPGEGLEWIGTISSRGSTYYANWAKGRFTISKTSTTVDLKITSPTTEDTATYFCARSSLAGYEPYYFKLWGQGTLVTVSS VL: DVVMTQTASPVSAAVGGTVTIKCQASESISSYLAWYQQKPGQPPKLLIYGASDLASGVPSRFKGSGSGTEFTLTISDLECADAATYYCQSYYGLSRNGYGNVFGGGTEVVVKG
unit.symbol: %
probe binding, % of diluent control: 106

binder: anti-CP mAb B (antibody, V domains shown, Recombinant full-length rabbit IgG from HEK-293; tested as conditioned medium, Protein A-purified and biotinylated) VH: QQQLEESGGGLVKPGGTLTLTCKASGIDFSSYYYMCWVRQAPGKGLEWIACIYVIDDTIYCANWAKGRFTISKTSSTTVTLQMTSLTAADTATYFCARDGSSGIRDYFDLWGPGTLVTVSS VL: AYDMTQTPASVEVAVGGTVTIKCQASESVSTWLAWYQQKPGQPPKLLIYKASDLASGVPSRFKGSGSGTEFTLTISGVECADAATYYCQQGYTYNNVENVFGGGTEVVVKG
unit.symbol: %
probe binding, % of diluent control: 204

Note: attention shifts to another entry.
Which probe binding, % of diluent control value belongs to anti-CP mAb A (antibody, V domains shown, Recombinant full-length rabbit IgG from HEK-293; tested as conditioned medium, Protein A-purified and biotinylated) VH: QSLEESGGDLVKPGASLTLTCKASGFDLSRFYYMCWVRQAPGKGLEWIACIYAGRTGNTYYASWAKGRFTISKTSSTTVTLQMTSLTAADTATYFCARASGDFLAYTYAMDLWGPGTLVTVSS VL: AAVLTQTPASVSAAVGGTVTISCQASQSVDNNNYLAWYQQKPGQPPKLLIYEASKLASGVPSRFSGSGSGTQFTLTISDVQCDDATTYYCAGGYSSSADANAFGGGTEVVVKG ?
115
